Parameter: IC50. Scope: all listed entries.
Biological target: GR (Homo sapiens (Human), UniProt P04150)
Sequence (P04150 whole entry): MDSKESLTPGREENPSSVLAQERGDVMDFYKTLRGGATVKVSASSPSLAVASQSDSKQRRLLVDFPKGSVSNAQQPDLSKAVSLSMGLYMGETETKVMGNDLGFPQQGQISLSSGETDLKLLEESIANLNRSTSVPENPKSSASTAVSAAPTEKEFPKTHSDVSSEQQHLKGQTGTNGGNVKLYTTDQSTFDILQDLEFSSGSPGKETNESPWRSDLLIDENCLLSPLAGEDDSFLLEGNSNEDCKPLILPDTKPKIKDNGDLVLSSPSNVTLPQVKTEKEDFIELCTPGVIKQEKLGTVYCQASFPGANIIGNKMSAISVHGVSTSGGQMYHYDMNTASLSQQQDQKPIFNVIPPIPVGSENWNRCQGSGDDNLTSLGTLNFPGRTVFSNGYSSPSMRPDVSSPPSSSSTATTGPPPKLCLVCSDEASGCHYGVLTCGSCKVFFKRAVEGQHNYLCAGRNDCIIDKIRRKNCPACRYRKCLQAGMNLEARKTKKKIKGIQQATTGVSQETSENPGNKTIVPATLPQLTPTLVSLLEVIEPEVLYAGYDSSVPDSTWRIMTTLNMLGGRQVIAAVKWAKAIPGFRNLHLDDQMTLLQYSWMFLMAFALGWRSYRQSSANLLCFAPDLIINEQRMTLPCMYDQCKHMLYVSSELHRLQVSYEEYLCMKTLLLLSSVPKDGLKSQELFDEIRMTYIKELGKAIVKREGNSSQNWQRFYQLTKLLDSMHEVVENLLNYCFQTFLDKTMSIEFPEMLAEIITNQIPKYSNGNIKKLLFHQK
Assay: In Vitro GR Luciferase Reporter Assay
Conditions: CHO-K1-GR-MMTV-Luc reporter cells, antagonist assay, 10 nM Dexamethasone, 18-24 hours
readout-name: IC50

> print(dat)
                           structure.smiles  measured.result
1  CCc1cc(F)c([C@H]2C[C@@]3(C)[C@@H](CC[C@@]3(O)C#CC(C)C)[C@@H]3CCC4=CC(=O)CCC4=C32)c(F)c1         ≤ 100 nM
2  CN(C)c1cc([C@H]2C[C@@]3(C)[C@@H](CC[C@@]3(O)C#CC(F)(F)F)[C@@H]3CCC4=CC(=O)CCC4=C32)ccc1Cl         > 100 nM
3  C[C@]12C[C@H](c3ccc4c(c3)OCO4)C3=C4CCC(=O)C=C4CC[C@H]3[C@@H]1CC[C@@]2(O)C#Cc1ccc(S(C)(=O)=O)cc1         ≤ 100 nM
4  CC(C)Oc1cccc([C@H]2C[C@@]3(C)[C@@H](CC[C@@]3(O)C#CC(F)(F)F)[C@@H]3CCC4=CC(=O)CCC4=C32)c1         > 100 nM
5  CN(C)c1ccc([C@H]2C[C@@]3(C)[C@@H](CC[C@@]3(O)C#Cc3ccc(C#N)cc3)[C@@H]3CCC4=CC(=O)CCC4=C32)cc1         ≤ 100 nM
6  CC(=O)N1CCN(c2ccc([C@H]3C[C@@]4(C)[C@@H](CC[C@@]4(O)C#CC(C)(C)C)[C@@H]4CCC5=CC(=O)CCC5=C43)cc2)CC1         ≤ 100 nM

###

Biological target: GR (Homo sapiens (Human), UniProt P04150)
Assay: In Vitro GR Luciferase Reporter Assay
Settings: CHO-K1-GR-MMTV-Luc reporter cells, antagonist assay, 10 nM Dexamethasone, 18-24 hours
pIC50: −log10 of the molar value.
Parameter: pIC50. Scope: all listed entries.
readout-name: pIC50

> print(dat)
                           structure.smiles                                 tested.on  measured.result
1  CCN(c1ccc([C@H]2C[C@@]3(C)[C@@H](CC[C@@]3(O)C#CC(C)(C)C)[C@@H]3CCC4=CC(=O)CCC4=C32)cc1)C(C)C  GR (Homo sapiens (Human), UniProt P04150)           < 7.00
2  COc1ccc([C@H]2C[C@@]3(C)[C@@H](CC[C@@]3(O)C#CC(C)(C)C)[C@@H]3CCC4=CC(=O)CCC4=C32)cc1  GR (Homo sapiens (Human), UniProt P04150)           ≥ 7.00
3  CN(C)c1c(F)cc([C@H]2C[C@@]3(C)[C@@H](CC[C@@]3(O)C#CC3CC3)[C@@H]3CCC4=CC(=O)CCC4=C32)cc1F  GR (Homo sapiens (Human), UniProt P04150)           ≥ 7.00
4  CN(C)c1ccc([C@H]2C[C@@]3(C)[C@@H](CC[C@@]3(O)C#Cc3ccc(C(C)(C)C)cc3)[C@@H]3CCC4=CC(=O)CCC4=C32)cc1  GR (Homo sapiens (Human), UniProt P04150)           < 7.00
5  Cc1ccc([C@H]2C[C@@]3(C)[C@@H](CC[C@@]3(O)C#CC(F)(F)F)[C@@H]3CCC4=CC(=O)CCC4=C32)cc1F  GR (Homo sapiens (Human), UniProt P04150)           < 7.00
6  CC(C)C#C[C@]1(O)CC[C@H]2[C@@H]3CCC4=CC(=O)CCC4=C3[C@@H](c3cc(F)c(N(C)C)cc3F)C[C@@]21C  GR (Homo sapiens (Human), UniProt P04150)           ≥ 7.00

###

Biological target: GR (Homo sapiens (Human))
Assay: In Vitro GR Luciferase Reporter Assay
Settings: CHO-K1-GR-MMTV-Luc reporter cells, antagonist assay, 10 nM Dexamethasone, 18-24 hours
readout-name: IC50

> print(dat)
                                   compound  measured.result
1  COC1CN(c2ccc([C@H]3C[C@@]4(C)[C@@H](CC[C@@]4(O)C#CC(C)(C)OC)[C@@H]4CCC5=CC(=O)CCC5=C43)cc2)C1         > 100 nM
2  CC(C)Oc1ccc([C@H]2C[C@@]3(C)[C@@H](CC[C@@]3(O)C#CC(C)(C)C)[C@@H]3CCC4=CC(=O)CCC4=C32)cc1         ≤ 100 nM
3  COC(C)(C)C#C[C@]1(O)CC[C@H]2[C@@H]3CCC4=CC(=O)CCC4=C3[C@@H](c3ccc(N4CCCC4)cc3)C[C@@]21C [drawing 340]         ≤ 100 nM

###

Parameter: IC50. Scope: all listed entries.
Target: GR (Homo sapiens (Human), UniProt P04150)
Test: In Vitro GR Luciferase Reporter Assay
Details: CHO-K1-GR-MMTV-Luc reporter cells, antagonist assay, 10 nM Dexamethasone, 18-24 hours
readout-name: IC50

> print(dat)
                                   compound  readout.name  measured.result
1  Cc1c(F)cc([C@H]2C[C@@]3(C)[C@@H](CC[C@@]3(O)C#Cc3ccc(S(C)(=O)=O)cc3)[C@@H]3CCC4=CC(=O)CCC4=C32)cc1F [drawing 293]          IC50         ≤ 0.1 µM
2  CN(C)c1ccc([C@H]2C[C@@]3(C)[C@@H](CC[C@@]3(O)C#CC3(C)COC3)[C@@H]3CCC4=CC(=O)CCC4=C32)cc1 [drawing 354]          IC50         ≤ 0.1 µM
3  CC(C)(C)C#C[C@]1(O)CC[C@H]2[C@@H]3CCC4=CC(=O)CCC4=C3[C@@H](c3ccc(C(C)(C)CO)cc3)C[C@@]21C          IC50         ≤ 0.1 µM

###

Biological target: UniProtKB P04150
Experiment: In Vitro GR Luciferase Reporter Assay
Details: CHO-K1-GR-MMTV-Luc reporter cells, antagonist assay, 10 nM Dexamethasone, 18-24 hours
readout-name: IC50

> print(dat)
                                   molecule  measured.result
1  C[C@]12C[C@H](c3ccc4c(c3)OCO4)C3=C4CCC(=O)C=C4CC[C@H]3[C@@H]1CC[C@@]2(O)C#CC(F)(F)F         ≤ 100 nM
2  CN(C)c1ccc([C@H]2C[C@@]3(C)[C@@H](CC[C@@]3(O)C#Cc3ccc(Cl)cc3)[C@@H]3CCC4=CC(=O)CCC4=C32)cc1         ≤ 100 nM
3  COC1CN(c2ccc([C@H]3C[C@@]4(C)[C@@H](CC[C@@]4(O)C#CC(C)(C)C)[C@@H]4CCC5=CC(=O)CCC5=C43)cc2)C1 [drawing 341]         ≤ 100 nM

###

Molecular target: GR (Homo sapiens (Human), UniProt P04150)
Test: In Vitro GR Luciferase Reporter Assay
Settings: CHO-K1-GR-MMTV-Luc reporter cells, antagonist assay, 10 nM Dexamethasone, 18-24 hours
Parameter: IC50. Scope: all listed entries.
readout-name: IC50

> print(dat)
                           structure.smiles  measured.result
1  CC(C)(C)C#C[C@]1(O)CC[C@H]2[C@@H]3CCC4=CC(=O)CCC4=C3[C@@H](c3ccc(N)cc3)C[C@@]21C         > 100 nM
2  COCCN(C)c1ccc([C@H]2C[C@@]3(C)[C@@H](CC[C@@]3(O)C#CC(C)(C)C)[C@@H]3CCC4=CC(=O)CCC4=C32)cc1         ≤ 100 nM
3  COc1cc([C@H]2C[C@@]3(C)[C@@H](CC[C@@]3(O)C#CC(C)(C)C)[C@@H]3CCC4=CC(=O)CCC4=C32)ccc1N(C)C         > 100 nM

###

Parameter: IC50. Scope: all listed entries.
Molecular target: GR (Homo sapiens (Human))
Assay: In Vitro GR Luciferase Reporter Assay
Details: CHO-K1-GR-MMTV-Luc reporter cells, antagonist assay, 10 nM Dexamethasone, 18-24 hours
readout-name: IC50

> print(dat)
                                    molecule  readout.name  measured.result
 1  C[C@H]1CCCN1c1ccc([C@H]2C[C@@]3(C)[C@@H](CC[C@@]3(O)C#CC(C)(C)C)[C@@H]3CCC4=CC(=O)CCC4=C32)cc1          IC50         ≤ 100 nM
 2  CN(C)c1ccc([C@H]2C[C@@]3(C)[C@@H](CC[C@@]3(O)C#CC(C)(C)C)[C@@H]3CCC4=CC(=O)CCC4=C32)cc1F [drawing 284]          IC50         ≤ 100 nM
 3  CC(C)C#C[C@]1(O)CC[C@H]2[C@@H]3CCC4=CC(=O)CCC4=C3[C@@H](c3ccc4c(c3)OCCO4)C[C@@]21C          IC50         ≤ 100 nM
 4  Cc1ccc(-c2cc(F)c([C@H]3C[C@@]4(C)[C@@H](CC[C@@]4(O)C#CC(C)(C)C)[C@@H]4CCC5=CC(=O)CCC5=C43)cc2F)cn1          IC50         > 100 nM
 5  C[C@]12C[C@H](c3ccc4c(c3)OCO4)C3=C4CCC(=O)C=C4CC[C@H]3[C@@H]1CC[C@@]2(O)C#CC1CC1          IC50         ≤ 100 nM
 6  CC(C)C#C[C@]1(O)CC[C@H]2[C@@H]3CCC4=CC(=O)CCC4=C3[C@@H](c3c(F)cc(N4CCCC4)cc3F)C[C@@]21C          IC50         ≤ 100 nM
 7  COC(C)(C)C#C[C@]1(O)CC[C@H]2[C@@H]3CCC4=CC(=O)CCC4=C3[C@@H](c3ccc(N(C)C)cc3)C[C@@]21C          IC50         ≤ 100 nM
 8  C[C@]12C[C@H](c3ccc4c(c3)OCCO4)C3=C4CCC(=O)C=C4CC[C@H]3[C@@H]1CC[C@@]2(O)C#CC1CC1          IC50         ≤ 100 nM
 9  CC(C)C#C[C@]1(O)CC[C@H]2[C@@H]3CCC4=CC(=O)CCC4=C3[C@@H](c3ccc4c(c3)OCO4)C[C@@]21C          IC50         ≤ 100 nM
10  Cc1c(F)cc([C@H]2C[C@@]3(C)[C@@H](CC[C@@]3(O)C#CC3CC3)[C@@H]3CCC4=CC(=O)CCC4=C32)cc1F          IC50         ≤ 100 nM
11  CC(C)(C)C#C[C@]1(O)CC[C@H]2[C@@H]3CCC4=CC(=O)CCC4=C3[C@@H](c3ccc(N4CCCC4)cc3)C[C@@]21C [drawing 276]          IC50         ≤ 100 nM
12  CN(C)c1cc(F)c([C@H]2C[C@@]3(C)[C@@H](CC[C@@]3(O)C#CC(C)(C)C)[C@@H]3CCC4=CC(=O)CCC4=C32)c(F)c1          IC50         ≤ 100 nM
13  CN(C)c1cc(F)c([C@H]2C[C@@]3(C)[C@@H](CC[C@@]3(O)C#CC(F)(F)F)[C@@H]3CCC4=CC(=O)CCC4=C32)c(F)c1          IC50         ≤ 100 nM
14  CC(C)(C)C#C[C@]1(O)CC[C@H]2[C@@H]3CCC4=CC(=O)CCC4=C3[C@@H](c3ccc(N4CCN(S(C)(=O)=O)CC4)cc3)C[C@@]21C [drawing 346]          IC50         ≤ 100 nM
15  COc1ccc([C@H]2C[C@@]3(C)[C@@H](CC[C@@]3(O)C#CC(C)C)[C@@H]3CCC4=CC(=O)CCC4=C32)cc1F          IC50         ≤ 100 nM
16  CCc1ccc([C@H]2C[C@@]3(C)[C@@H](CC[C@@]3(O)C#Cc3ccccc3)[C@@H]3CCC4=CC(=O)CCC4=C32)cc1          IC50         ≤ 100 nM
17  Cc1c(F)cc([C@H]2C[C@@]3(C)[C@@H](CC[C@@]3(O)C#Cc3ccccn3)[C@@H]3CCC4=CC(=O)CCC4=C32)cc1F          IC50         > 100 nM
18  CC(C)(C)C#C[C@]1(O)CC[C@H]2[C@@H]3CCC4=CC(=O)CCC4=C3[C@@H](c3ccc(C4CC4)cc3)C[C@@]21C          IC50         ≤ 100 nM
19  CC(C)(C)C#C[C@]1(O)CC[C@H]2[C@@H]3CCC4=CC(=O)CCC4=C3[C@@H](c3ccc4c(c3)OCO4)C[C@@]21C [drawing 331]          IC50         ≤ 100 nM
20  COCCN(C)c1ccc([C@H]2C[C@@]3(C)[C@@H](CC[C@@]3(O)C#CC(C)(C)OC)[C@@H]3CCC4=CC(=O)CCC4=C32)cc1          IC50         ≤ 100 nM
21  CN(C)c1cc(F)c([C@H]2C[C@@]3(C)[C@@H](CC[C@@]3(O)C#CC(C)(C)C)[C@@H]3CCC4=CC(=O)CCC4=C32)cc1F [drawing 304]          IC50         ≤ 100 nM
22  COC(C)(C)C#C[C@]1(O)CC[C@H]2[C@@H]3CCC4=CC(=O)CCC4=C3[C@@H](c3ccc(N4CCN(C(=O)CO)CC4)cc3)C[C@@]21C          IC50         > 100 nM
23  Cc1c(F)cc([C@H]2C[C@@]3(C)[C@@H](CC[C@@]3(O)C#CC(C)C)[C@@H]3CCC4=CC(=O)CCC4=C32)cc1F          IC50         ≤ 100 nM
24  CC(C)C#C[C@]1(O)CC[C@H]2[C@@H]3CCC4=CC(=O)CCC4=C3[C@@H](c3c(F)cc(N4CCOCC4)cc3F)C[C@@]21C [drawing 294]          IC50         ≤ 100 nM
25  CN(CC1CC1)c1ccc([C@H]2C[C@@]3(C)[C@@H](CC[C@@]3(O)C#CC(C)(C)C)[C@@H]3CCC4=CC(=O)CCC4=C32)cc1          IC50         > 100 nM
